Target: HNF4alpha8 (COS-7 nuclear extract) (Homo sapiens, UniProt P41235-5 1-452)
Sequence: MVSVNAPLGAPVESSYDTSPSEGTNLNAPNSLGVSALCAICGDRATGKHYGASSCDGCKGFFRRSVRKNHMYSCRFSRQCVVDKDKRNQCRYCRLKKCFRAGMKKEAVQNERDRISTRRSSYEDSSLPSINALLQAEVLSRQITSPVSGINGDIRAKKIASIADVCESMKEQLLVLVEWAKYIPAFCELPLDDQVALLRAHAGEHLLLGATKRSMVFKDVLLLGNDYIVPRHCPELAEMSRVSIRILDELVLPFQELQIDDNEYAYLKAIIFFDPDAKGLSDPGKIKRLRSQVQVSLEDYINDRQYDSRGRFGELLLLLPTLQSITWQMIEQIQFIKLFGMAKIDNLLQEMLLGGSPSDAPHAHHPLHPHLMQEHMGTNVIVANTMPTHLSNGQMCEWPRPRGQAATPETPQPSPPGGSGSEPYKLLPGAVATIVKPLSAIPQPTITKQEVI
Experiment: protein-binding microarray; COS-7 nuclear extract on double-stranded Agilent 4x180k PBM; binding buffer, salt, pH and temperature not given in the material; high values mean tight binding
Details: chain copies: 2; label: 3' end of strand 1 on the slide; dsDNA, one strand shown
In all, about 18,000 sequences were measured (“log2 normalized intensity”: median about 0.36, highest 2% from about 7.3 on). Many of the other results were omitted from the sample, so the highest values are more common in it than they were.
I'd appreciate it if you could supply binding signal values for the items below.
# unit: log2 normalized intensity | format: bare number

In: Entry CCCCCAGTGGAATGTGCCCTTTGACCTCTCGCCTAGGGAGATTAGAGTATCGGTCGA has what binding signal?
Out: 10.3

In: Entry TGCTAGAGTACTTGGACTTTAACCTTTAGAGCCTAGGGAGATTAGAGTATCGGTCGA has what binding signal?
Out: 9.71

In: Entry AGTAACCTGACCCCCAGTGGAATGTGCCCTGCCTAGGGAGATTAGAGTATCGGTCGA has what binding signal?
Out: 4.61

In: Entry AGTCTCAAAGGTCAGATGACAGAATTGGTCGCCTAGGGAGATTAGAGTATCGGTCGA has what binding signal?
Out: 4.15

In: Entry CACTCTGGTGCCCTCTGAGTGTTTGACCTTGCCTAGGGAGATTAGAGTATCGGTCGA has what binding signal?
Out: 5.61

In: Entry AGGTTCCTCGCCTATGGTATGTATGGAATGGCCTAGGGAGATTAGAGTATCGGTCGA has what binding signal?
Out: 2.2

In: Entry CTTCCAAGGCTGCAAGCAAACCTGCCCTTTGCCTAGGGAGATTAGAGTATCGGTCGA has what binding signal?
Out: 4.57

In: Entry TTCCTTATCTGGAATTCCTCCTCCTGTTTGGCCTAGGGAGATTAGAGTATCGGTCGA has what binding signal?
Out: 0.85

In: Entry GGACTTCGAATGGTATGCTAGAGTACTTGGGCCTAGGGAGATTAGAGTATCGGTCGA has what binding signal?
Out: 1.51

In: Entry GCCTAAGCAGGGCTAGACTTTAACCCCCTTGCCTAGGGAGATTAGAGTATCGGTCGA has what binding signal?
Out: 6.24

In: Entry GGGTCATGCTGGTCTCCTTGCCCCACCCCCGCCTAGGGAGATTAGAGTATCGGTCGA has what binding signal?
Out: 5.73

In: Entry GGAATCTTGCCCTGTCGCCCAGGCTGGAATGCCTAGGGAGATTAGAGTATCGGTCGA has what binding signal?
Out: 1.58

In: Entry CCTGACCCCCAGTGGAATGTGCCCTTTGACGCCTAGGGAGATTAGAGTATCGGTCGA has what binding signal?
Out: 5.75

In: Entry ATTGACATTTGGGGTCAGATAATTCTTTGCGCCTAGGGAGATTAGAGTATCGGTCGA has what binding signal?
Out: 2.42

In: Entry GGTCAATGTGCACATTCGAAGTTTTGCTCCGCCTAGGGAGATTAGAGTATCGGTCGA has what binding signal?
Out: 1.65

In: Entry GTGACTCTAGGAACCTTTCTCCATACCTCTGCCTAGGGAGATTAGAGTATCGGTCGA has what binding signal?
Out: -0.874

In: Entry AATGTGCCCTTTGACCTCTCTCTCCTAACTGCCTAGGGAGATTAGAGTATCGGTCGA has what binding signal?
Out: 7.21

In: Entry TGGACTTTGGTCCTGGTCAGACTTGCCACGGCCTAGGGAGATTAGAGTATCGGTCGA has what binding signal?
Out: 5.42

In: Entry CCCTCTGAGTGTTTGACCTTTCACCCAGAAGCCTAGGGAGATTAGAGTATCGGTCGA has what binding signal?
Out: 7.2

In: Entry CCTGCACACCTGCCTTTGATCAGGGACCTTGCCTAGGGAGATTAGAGTATCGGTCGA has what binding signal?
Out: 1.97

In: Entry TTAACCTCTATTGACCTTCTTATTTGGAGAGCCTAGGGAGATTAGAGTATCGGTCGA has what binding signal?
Out: 2.41

In: Entry TTACTGGGGCCCATTGTATGAGGGTGAAGTGCCTAGGGAGATTAGAGTATCGGTCGA has what binding signal?
Out: 0.972

In: Entry TCGAATGGTATGCTAGAGTACTTGGACTTTGCCTAGGGAGATTAGAGTATCGGTCGA has what binding signal?
Out: 7.5

In: Entry GGCCGTGAAGCCGTCCTGTCCTGGACTTTCGCCTAGGGAGATTAGAGTATCGGTCGA has what binding signal?
Out: 4.47

In: Entry GTCTCTCAGGCACAGCTCGACCTTTGACCTGCCTAGGGAGATTAGAGTATCGGTCGA has what binding signal?
Out: 10

In: Entry GGTGGGCTGCTCCCAGTGCCCTTTGAACTCGCCTAGGGAGATTAGAGTATCGGTCGA has what binding signal?
Out: 8.91

In: Entry AAATATTGTCAGTGAGGAATGTGCAAACGGGCCTAGGGAGATTAGAGTATCGGTCGA has what binding signal?
Out: 0.32

In: Entry GGCCAGGTGGGCTGCTCCCAGTGCCCTTTGGCCTAGGGAGATTAGAGTATCGGTCGA has what binding signal?
Out: 4.47

In: Entry CTTGGGGGAGGAGGGCAACCTTTGAACTGGGCCTAGGGAGATTAGAGTATCGGTCGA has what binding signal?
Out: 6.02

In: Entry CTGGTTCTGCAAGGCAACTGACCTTTGGATGCCTAGGGAGATTAGAGTATCGGTCGA has what binding signal?
Out: 8.71

In: Entry AAGTTCATGGAAAGTTTCACTTTCTCTTATGCCTAGGGAGATTAGAGTATCGGTCGA has what binding signal?
Out: 0.0777

In: Entry TATGTCTCTCCTATTCAGGTATTTGCTCTGGCCTAGGGAGATTAGAGTATCGGTCGA has what binding signal?
Out: 0.488

In: Entry CCTCTGTCTCTCAGGCACAGCTCGACCTTTGCCTAGGGAGATTAGAGTATCGGTCGA has what binding signal?
Out: 6.7

In: Entry GCTGATGCAGAGGGTGCAAAGTTTTTAAAGGCCTAGGGAGATTAGAGTATCGGTCGA has what binding signal?
Out: 1.28

In: Entry ATATAAAAACTAACCATACTGAGTGTTGGTGCCTAGGGAGATTAGAGTATCGGTCGA has what binding signal?
Out: -0.252

In: Entry GCTCAGCTGGTTGCCCCTTTGACCCTCGGGGCCTAGGGAGATTAGAGTATCGGTCGA has what binding signal?
Out: 7.06

In: Entry ATGCTGGTCTCCTTGCCCCACCCCCCACCCGCCTAGGGAGATTAGAGTATCGGTCGA has what binding signal?
Out: 7.48
